All figures here come from ChEMBL document CHEMBL3763040.

Assay: Cytotoxicity against human HSC3 cells assessed as cell death after 48 hrs by MTT assay
Type: functional
Conditions: HSC-3, 48 h

# cpd_smiles, unit_label, CC50
records = [
    ("N[C@@H](Cc1ccc(N(CCCl)CCCl)cc1)C(=O)O", "µM", 25),
    ("O=C(/C=C/c1ccc(O)cc1)/C=C/c1ccc(O)cc1", "µM", 5.4),
    ("Cl.Cl.Cl.O=C1/C(=C/c2ccc(O)c(CN3CCOCC3)c2)CNC/C1=C\\c1ccc(O)c(CN2CCOCC2)c1", "µM", 1),
    ("O=C1/C(=C/c2ccc(O)cc2)CCC/C1=C\\c1ccc(O)cc1", "µM", 50),
]

* * *

Experiment: Cytotoxicity against HPLF assessed as cell death after 48 hrs by MTT assay
Details: human, HPLF cells

# cpd_smiles, inequality_symbol, CC50 at 48 h [µM]
rows = [
    ("O=C(/C=C/c1ccc(O)cc1)/C=C/c1ccc(O)cc1", "=", 16),
    ("O=C1/C(=C/c2ccc(O)cc2)CCC/C1=C\\c1ccc(O)cc1", ">", 200),
    ("Cl.Cl.Cl.O=C1/C(=C/c2ccc(O)c(CN3CCOCC3)c2)CNC/C1=C\\c1ccc(O)c(CN2CCOCC2)c1", "=", 3.8),
]
